Test system: SF-539 CNS
Experiment: NCI-60 one-dose screen, 48 h
Details: 10 µM
The panel holds about 83,000 compounds, 20% with a hit somewhere; the sample as a whole holds those more often. The source made the active and inactive calls. Rule for the calls: active = growth percent below 10; inactive = the rest.
Form entry, call: pick from t (active), f (inactive)

input: Any idea what this test logged for "Cc1c(-c2ccccc2)[nH]c2ccccc12" ?
output: f

input: Any idea what this test logged for "O=C1C=CC(=O)N1c1ccc(N2C(=O)C=CC2=O)cc1" ?
output: f

input: Any idea what this test logged for Cc1cc(O)c2c(c1O)C(=O)C13C(=C2O)C(=O)C2C(O)C1C1C(O)C3C(=O)C3=C(O)c4c(O)cc(C)c(O)c4C(=O)C321 (stereo not drawn) ?
output: t
